Origin of the recorded values: ChEMBL document CHEMBL4325849

# Test system: Streptococcus pyogenes
# test_description: Inhibition of Streptococcus pyogenes SrtA deltaN81 mutant expressed in Escherichia coli BL21(DE3) at 100 uM using Abz-LPETA-Dap(Dnp) as substrate preincubated for 10 mins followed by substrate addition measured every min for 2.5 hrs by fluorimetric assay relative to control
Overview of recorded inhibition for various molecules
Numbers only; they are read as %.

Examples from the recorded data:
# input molecule: "Cc1ccc(S(=O)(=O)/N=C/c2cc3ccc(Cl)cc3[nH]2)cc1" ; wanted: its inhibition 8.8

Can you look up the measured inhibition of "COC(=O)c1cc2ccccc2[nH]1" for me? 5.1

Quick check: inhibition of "CCOC(=O)c1[nH]c2cc(Cl)ccc2c1C(=O)CCC(=O)OC" ? 23.8

Any idea what inhibition was measured for CC(C(=O)O)c1ccc2cc(OS(C)(=O)=O)ccc2c1 (configuration not stated) ? 17

// query inhibition value for entry "O=C(O)CCC(=O)c1c(C(=O)O)[nH]c2cc(Cl)ccc12" 15.1

Entry "Nc1ncccc1CO" : reported inhibition = ? -0.5

More entries:
Sample "O=Cc1ccc2[nH]ccc2c1" — what was its inhibition? 11.3
